- targetOrSystem: human mu opioid receptor (human) (UniProt P35372)
- Sequence (P35372 whole entry): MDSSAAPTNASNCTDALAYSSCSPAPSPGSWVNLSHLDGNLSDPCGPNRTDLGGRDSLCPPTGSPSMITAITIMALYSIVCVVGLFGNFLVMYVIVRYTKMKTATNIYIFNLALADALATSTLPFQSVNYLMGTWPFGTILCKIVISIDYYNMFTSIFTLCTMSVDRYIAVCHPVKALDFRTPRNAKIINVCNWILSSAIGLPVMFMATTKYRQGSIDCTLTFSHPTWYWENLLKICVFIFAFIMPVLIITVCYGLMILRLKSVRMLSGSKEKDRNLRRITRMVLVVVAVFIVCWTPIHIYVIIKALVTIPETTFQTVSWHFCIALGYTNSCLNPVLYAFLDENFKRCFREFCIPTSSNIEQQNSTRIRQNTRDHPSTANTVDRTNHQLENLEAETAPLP
- protocolNotes: radioligand binding; displacement of [3H]DAMGO from commercial membranes of CHO cells transfected with the human recombinant mu opioid receptor; Ki, mean ± SEM, n ≥ 3
propertyLabel: Ki (nM)

Some entries whose results are on file:
• EM-2 analog 6 (Tyr-(R)-β2-Ala-Phe-Phe-NH2) (peptide) = 46.8
• EM-2 analog 7 (Dmt-(R)-β2-Ala-Phe-Phe-NH2) (peptide) = 0.31
• EM-2 analog 8 (Tyr-(R)-β3-Ala-Phe-Phe-NH2) (peptide) = 0.44

(I) EM-2 analog 5 (Dmt-(R)-Nip-Phe-Phe-NH2) (peptide)
(II) EM-2 analog 2 (Tyr-(R)-Pip-Phe-Phe-NH2) (peptide)
(III) EM-2 analog 3 (Dmt-(R)-Pip-Phe-Phe-NH2) (peptide)
Rank items: key Ki, increasing. Order the labels as requested and give them as your answer. I, III, II

(a) EM-2 analog 9 (Dmt-(R)-β3-Ala-Phe-Phe-NH2) (peptide)
(b) EM-2 analog 4 (Tyr-(R)-Nip-Phe-Phe-NH2) (peptide)
# min-compare on Ki between a and b Write down the label of the entry you select. a
